# credit: the supplement of paper PMC10567573

protein stability index reference
B1: VAMP4 (parent)
chain: FLRGPSGPRFGPRNDKIKHVQNQV

Variants of: B1
assay name: protein stability index of a GFP-peptide fusion (GPS, HEK-293T) (PSI 1-6); higher = more stable;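 further: lentivirally expressed fusions sorted by FACS into six bins by GFP to DsRed ratio, PSI derived from sequencing read proportions per bin multiplied by bin number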
conditions: c terminus: a fixed tail appended
Answer using only a numeral; do not append any unit.

Consider the reported protein stability index for these variants:
| variant spec | assay endpoint | recorded number |
| --- | --- | --- |
| K16M | protein stability index | 2.42 |
| K16N | protein stability index | 3.18 |
| N22I | protein stability index | 1.51 |
| G4I | protein stability index | 2.05 |
| K18G | protein stability index | 2.88 |
| P8Q | protein stability index | 1.96 |
| D15W | protein stability index | 1.39 |
| Q23E | protein stability index | 3.39 |

Note protein stability index for the variant shown: Q23S
2.54

Note protein stability index for the variant shown: Q23C
2.23

Note protein stability index for the variant shown: V20D
3.72
